measured-target: Sentrin-specific protease 8 (Homo sapiens)
assay-explanation: blockers of SENP8 deneddylase activity – biochemical, fluorescence, Nedd8 protein substrate, uHTS, primary screen (AID 602440)
assay-context: recombinant SENP8, Nedd8 substrate fluorescence; at 20 µM; active compounds read high
About 2,300 (0.64%) of roughly 360,000 compounds were called active. For the sample, actives were picked, then their nearest neighbours and some compounds at random.
quantity-measured: inhibition (%)
// note: answer is a bare numeric in %

A selection of reference data follows.
1. COc1ccc2c(c1)N(C)/C(=C1/SC(=S)N(NC(C)=O)C1=O)S2
1.5
2. COc1ccc(C(=O)NC(=S)N2CCNC(=O)C2CC(=O)OC(C)C)cc1 (configuration not stated)
-6.1
3. COC(=O)C1=C(C(=O)c2ccc(C)cc2)C(c2ccccc2)n2nnnc2N1 (configuration not stated)
44.3
4. COC(=O)c1nc2n(n1)C(c1ccc([N+](=O)[O-])cc1)C(C(=O)Nc1ccc(Cl)cc1)=C(C)N2 (configuration not stated)
18.3
5. CCC(C)CN1CCC(CO)(Cc2ccccc2Cl)CC1 (configuration not stated)
1.5

Request: Consider the compound shown here: `O=C(COC(=O)c1ccc(Br)o1)NC12CC3CC(CC(C3)C1)C2` What is its recorded inhibition?
Response: 10

Request: Quick one: `COc1ccc(C(=O)OCC(=O)Nc2cc(C)on2)cc1F`
Response: 10.9

Request: Item: Cn1c2c(c(=O)n(C)c1=O)C(c1cccc([N+](=O)[O-])c1)Nc1ccccc1O2 (configuration not stated)
Response: 22.9

Request: One more compound: `Cc1c(C(=O)N(Cc2ccccc2)Cc2cccnc2)cnn1-c1ccc(F)cc1`
Response: 7.4
